# subject.of.test: EGFR (Homo sapiens)
# Construct: Add 7 ug A431 cell lysate per well (EGFR source); endogenous in cells; host or cells: A431
# Sequence (P00533 25-1210): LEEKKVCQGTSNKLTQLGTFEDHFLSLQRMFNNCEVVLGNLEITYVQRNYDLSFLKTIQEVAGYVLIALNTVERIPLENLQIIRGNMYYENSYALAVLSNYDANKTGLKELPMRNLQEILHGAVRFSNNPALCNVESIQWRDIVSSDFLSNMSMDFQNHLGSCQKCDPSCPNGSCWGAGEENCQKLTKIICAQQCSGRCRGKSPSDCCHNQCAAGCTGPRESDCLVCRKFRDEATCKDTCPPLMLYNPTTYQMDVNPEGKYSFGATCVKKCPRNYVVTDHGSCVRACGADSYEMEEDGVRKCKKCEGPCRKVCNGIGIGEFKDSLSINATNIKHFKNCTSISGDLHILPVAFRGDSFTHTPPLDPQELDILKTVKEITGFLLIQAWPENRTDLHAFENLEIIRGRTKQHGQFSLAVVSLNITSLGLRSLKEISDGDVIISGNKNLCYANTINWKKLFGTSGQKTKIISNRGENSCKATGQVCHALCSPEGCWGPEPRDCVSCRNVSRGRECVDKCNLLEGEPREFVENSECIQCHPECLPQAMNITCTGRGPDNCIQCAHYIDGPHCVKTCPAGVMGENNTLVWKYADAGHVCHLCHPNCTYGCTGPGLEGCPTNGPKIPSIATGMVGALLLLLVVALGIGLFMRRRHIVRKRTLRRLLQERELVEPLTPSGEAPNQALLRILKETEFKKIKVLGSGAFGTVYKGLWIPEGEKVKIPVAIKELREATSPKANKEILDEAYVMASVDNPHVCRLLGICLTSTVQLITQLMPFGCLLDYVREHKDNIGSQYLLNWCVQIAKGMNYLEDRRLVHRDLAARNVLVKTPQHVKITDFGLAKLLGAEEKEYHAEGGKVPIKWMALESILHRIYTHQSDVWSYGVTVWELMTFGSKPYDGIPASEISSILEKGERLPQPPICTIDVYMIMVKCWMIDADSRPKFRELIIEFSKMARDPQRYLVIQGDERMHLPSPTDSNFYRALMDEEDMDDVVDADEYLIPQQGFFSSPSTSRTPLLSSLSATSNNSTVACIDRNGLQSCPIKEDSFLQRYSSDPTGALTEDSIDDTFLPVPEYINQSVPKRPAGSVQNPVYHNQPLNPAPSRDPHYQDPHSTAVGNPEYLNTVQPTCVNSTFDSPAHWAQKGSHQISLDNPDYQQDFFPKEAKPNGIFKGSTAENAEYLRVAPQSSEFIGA
# protocol.description: EGFR ELISA assay (in vitro kinase activity, EGFR captured from A431 cell lysate)
# Type: biochemical
# Set-up: concentration or dose not given beside the values
Kindly supply the reported Biochem EGFR %Inhibition values for the records listed here.
Response body: numeric value in %, unit text excluded.

Retrieve Biochem EGFR %Inhibition measured for COc1cc(Br)c(O)c(C=C2C(=O)Nc3c(Br)cc(Br)cc32)c1 and print it.
-6.1

Entry O=C1Nc2ccc(CCCl)cc2C1=Cc1ccc(O)c(Br)c1 needs its Biochem EGFR %Inhibition filled in; supply it.
21.4

Please give the documented Biochem EGFR %Inhibition of COc1cc(C)cc(O)c1C=C1C(=O)Nc2ccc(CCCl)cc21
-19.9

Dear colleague, please send me the reported Biochem EGFR %Inhibition for O=C1Nc2ccc(S(=O)(=O)Nc3ccc(C(F)(F)F)cc3)cc2C1=Cc1ccc(F)cc1C(F)(F)F when you can.
-51.8

Identify the reported Biochem EGFR %Inhibition for the following entry. Cc1cn(C)cc1C=C1C(=O)Nc2ccc(Br)c(C)c21
-0.9

Specify measured Biochem EGFR %Inhibition for O=C1Nc2c(Br)cc(Br)cc2C1=Cc1ccc(Br)o1 .
-28.4

Using known records, supply Biochem EGFR %Inhibition for Cc1cc(C=C2C(=O)Nc3ccc(S(=O)(=O)Nc4ccc(C(F)(F)F)cc4)cc32)cc(C)c1OCc1ccccc1
19.9

State its Biochem EGFR %Inhibition: CCc1ccc(C=C2C(=O)Nc3c(Br)cc(Br)cc32)o1
40.0

Tell us which Biochem EGFR %Inhibition value is on record for Cc1c(Br)ccc2c1C(=Cc1cc(C(C)(C)C)cc(C(C)(C)C)c1O)C(=O)N2
-1.1
